molecules and their reported Raw Signal
- target-of-assay: Human IP6K1 (Homo sapiens, UniProt Q92551)
- Construct: GST (N, cleaved yes); made in house; host or cells: C43 E. coli, pGEX-6P-2
- Sequence (Q92551 whole entry): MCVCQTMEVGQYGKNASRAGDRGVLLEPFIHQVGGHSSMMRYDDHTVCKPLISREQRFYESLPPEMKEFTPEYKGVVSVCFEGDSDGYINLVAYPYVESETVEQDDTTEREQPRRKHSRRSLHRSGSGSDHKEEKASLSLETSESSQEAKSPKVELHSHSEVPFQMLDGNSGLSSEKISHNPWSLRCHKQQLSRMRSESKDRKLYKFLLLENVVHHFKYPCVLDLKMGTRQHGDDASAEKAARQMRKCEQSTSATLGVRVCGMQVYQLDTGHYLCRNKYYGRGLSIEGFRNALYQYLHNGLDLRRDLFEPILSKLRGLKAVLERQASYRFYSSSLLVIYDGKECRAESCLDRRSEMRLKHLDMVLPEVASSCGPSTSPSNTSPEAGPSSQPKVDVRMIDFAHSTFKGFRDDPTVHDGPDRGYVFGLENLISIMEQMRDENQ
- procedure-text: IP6K1 high-throughput screen of the Sigma LOPAC (ADP-Glo Max, single point);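 further: final compound concentration 10µM in 5% DMSO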
- Type: biochemical
- conditions: LOPAC single-point screen, ADP-Glo Max luminescence raw signal per well
Lab note: write the figure by itself, no unit.

Here is how some molecules turned out for Raw Signal.
| molecule | reported-result |
| --- | --- |
| O=[N+]([O-])c1ccc(CSc2ncnc3c2ncn3[C@@H]2O[C@H](CO)[C@@H](O)[C@H]2O)cc1 | 50827 |
| CCCN1CCC[C@H](c2cccc(O)c2)C1.Cl [R(+)-3PPP hydrochloride] | 50646 |

Continue with the next molecule.
Q: Name the reported Raw Signal value associated with the molecule COc1cc([C@@H]2c3cc4c(cc3[C@H](O)[C@H]3COC(=O)[C@H]23)OCO4)cc(OC)c1OC
Ans: 50929

----------
- target-of-assay: Human IP6K1 (Homo sapiens, UniProt Q92551)
- Construct: GST (N, cleaved yes); made in house; host or cells: C43 E. coli, pGEX-6P-2
- procedure-text: IP6K1 high-throughput screen of the Sigma LOPAC (ADP-Glo Max, single point);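 further: final compound concentration 10µM in 5% DMSO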
- Type: biochemical
- conditions: LOPAC single-point screen, ADP-Glo Max raw signal per well
Where a name gives a salt, the structure may show the parent alone.
reported-endpoint: Raw Signal
API note: the answer field is a bare number with no unit suffix.

| compound | reported-result |
| --- | --- |
| NC(CCP(=O)(O)O)C(=O)O (racemic) [(±)-2-Amino-4-phosphonobutyric acid] | 55594 |
| CCCNC(C)C(=O)Nc1ccccc1C (centres unmarked) [Prilocaine hydrochloride] | 55610 |
| Cl.NCCc1ccc(S(=O)(=O)F)cc1 | 58918 |
| CCS(=O)(=O)Nc1cccc(C(=C2CCCCC2)c2cnc[nH]2)c1 [A-315456] | 57716 |
| CC(C)COC(=O)OCN1C(=O)CN(CCN2CC(=O)N(COC(=O)OCC(C)C)C(=O)C2)CC1=O [Sobuzoxane] | 54088 |
| OC[C@H]1O[C@@H](n2cnc3c(NC4CCCC4)ncnc32)[C@H](O)[C@@H]1O [N6-Cyclopentyladenosine] | 55487 |

Q: What value of measured Raw Signal is listed for C[N+](C)(C)CC#CCOC(=O)Nc1cccc(Cl)c1.[Cl-] [McN-A-343] ?
Ans: 55957

----------
- target-of-assay: Human IP6K1 (Homo sapiens, UniProt Q92551)
- Construct: GST (N, cleaved yes); made in house; host or cells: C43 E. coli, pGEX-6P-2
- procedure-text: IP6K1 high-throughput screen of the Sigma LOPAC (ADP-Glo Max, single point);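 further: final compound concentration 10µM in 5% DMSO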
- Type: biochemical
- conditions: LOPAC single-point screen, Z-score against plate average and StDev
Structures can show the parent of a compound that is named as a salt.
Recorded Z-score values for a group of compounds are listed next.
Number only, please.

Q: Quick one: Z-score of CNC(=C[N+](=O)[O-])NCCSCc1ccc(CN(C)C)o1 [Ranitidine hydrochloride] ?
Ans: 0.2134

Q: # iterate: CCCCOC(=O)NS(=O)(=O)c1sc(CC(C)C)cc1-c1ccc(Cn2c(CC)nc3c(C)cc(C)nc32)cc1 [L-162,313]
Ans: -0.01722

Q: c1ccc(-c2ccccn2)nc1 [2,2 -Bipyridyl] , same question.
Ans: 0.3136

Q: // same read-out, input: N=C1Sc2ccccc2C2=NCCCN12 [PD 404,182]
Ans: 0.315

Q: // query: CN1Cc2c(N)cccc2C(c2ccccc2)C1 (stereo not shown) [Nomifensine maleate]
Ans: 0.3366

Q: Next compound up: CC(C)C[C@H](N)CSSC[C@@H](N)CC(C)C.Cl.Cl [L-Leucinethiol, oxidized dihydrochloride]
Ans: 0.1918

Q: Now try CSc1nc(N)c2ncn([C@@H]3O[C@H](COP(=O)([O-])OP(=O)([O-])OP(=O)([O-])[O-])[C@@H](O)[C@H]3O)c2n1.[Na+].[Na+].[Na+].[Na+] .
Ans: 0.05581

Q: What about this compound? CCN(CC)CCNC(=O)c1cc(Cl)c(N)cc1OC.Cl [Metoclopramide hydrochloride]
Ans: -0.07486

Q: Try this compound next: CCS(=O)(=O)Nc1cccc(C(=C2CCCCC2)c2cnc[nH]2)c1 [A-315456]
Ans: -0.03471

----------
Let's look at some compounds and their measured Z-score.
- target-of-assay: Human IP6K1 (Homo sapiens, UniProt Q92551)
- Construct: GST (N, cleaved yes); made in house; host or cells: C43 E. coli, pGEX-6P-2
- procedure-text: IP6K1 high-throughput screen of the Sigma LOPAC (ADP-Glo Max, single point);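 further: final compound concentration 10µM in 5% DMSO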
- Assay type: biochemical
- conditions: LOPAC single-point screen; Z-score from raw signal with plate average and StDev
Where a name gives a salt, the structure may show the parent alone.
Field format: numeric only.

Recorded results for 5 compounds are shown here.
| compound | reported-result |
| --- | --- |
| CC(NC(C)(C)C)C(=O)c1cccc(Cl)c1 (stereo not drawn) [Bupropion hydrochloride] | -0.2137 |
| C=CC1=C(C)c2cc3[nH]c(cc4nc(cc5[nH]c(cc1n2)c(C)c5CCC(=O)O)C(CCC(=O)O)=C4C)c(C)c3C=C [Protoporphyrin IX disodium] | -0.2871 |
| Cn1cnc2c(NC3CCCC3)ncnc21 [N6-Cyclopentyl-9-methyladenine] | -0.2397 |
| CCc1ccccc1OC[C@@H](O)CN[C@H]1CCCc2ccccc21.O=C(O)C(=O)O [SR 59230A oxalate] | -0.1593 |
| Nc1nc(OCc2ccccc2)c2nc[nH]c2n1 [O6-benzylguanine] | -0.2272 |

Now examine the next entry.
Q: Any idea what Z-score was measured for COc1cc(CCN)ccc1O.Cl ?
Ans: -0.1479

----------
- target-of-assay: Human IP6K1 (Homo sapiens, UniProt Q92551)
- Construct: GST (N, cleaved yes); made in house; host or cells: C43 E. coli, pGEX-6P-2
- procedure-text: IP6K1 high-throughput screen of the Sigma LOPAC (ADP-Glo Max, single point);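 further: final compound concentration 10µM in 5% DMSO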
- Type: biochemical
- conditions: LOPAC single-point screen, ADP-Glo Max luminescence raw signal per well
Structures can show the parent of a compound that is named as a salt.
# Raw Signal annotations
A bare number is all that is needed in reply.

| molecule | reported-endpoint | reported-result |
| --- | --- | --- |
| CN(C)C(=O)C(CCN1CCC(O)(c2ccc(Cl)cc2)CC1)(c1ccccc1)c1ccccc1 [Loperamide hydrochloride] | Raw Signal | 51056 |
| COc1ccc2c(c[n+](C)c3c4cc5c(cc4ccc23)OCO5)c1OC [Chelerythrine chloride] | Raw Signal | 66575 |
| O=c1cc(O)cc(/C=C/c2ccc(O)c(O)c2)o1 | Raw Signal | 48484 |
| NCCCNCCSP(=O)(O)O | Raw Signal | 55102 |
| CC(C)OC(=O)C(C)(C)Oc1ccc(C(=O)c2ccc(Cl)cc2)cc1 [Fenofibrate] | Raw Signal | 61843 |

Q: Param item = N#CC(C#N)=Cc1cc(O)c(O)c(O)c1 ; retrieve measured Raw Signal.
Ans: 46819

Q: Consider next the molecule CC1=NN=C(c2ccc(N)cc2)c2cc3c(cc2C1)OCO3.Cl [GYKI 52466 hydrochloride] in the same way.
Ans: 61943

Q: Same lookup for O=C(O)[C@@H]1CCN1 , please.
Ans: 54831

Q: Now try CNCC[C@@H](Oc1ccc(C(F)(F)F)cc1)c1ccccc1.Cl [R-(-)-Fluoxetine hydrochloride] .
Ans: 63921

Q: Consider next the molecule Cc1nccc2c1[nH]c1ccccc12 in the same way.
Ans: 51802

Q: Okay, and CN1CC[C@@]23CCCC[C@@H]2[C@@H]1Cc1ccc(O)cc13.O=C(O)C(O)C(O)C(=O)O [Dextrorphan D-tartrate] ?
Ans: 63036

Q: // query: Nc1ccn([C@H]2CC[C@@H](CO)O2)c(=O)n1
Ans: 50390

Q: Can you handle NC(=O)CI [Iodoacetamide] next?
Ans: 64727

Q: Okay, and C[C@]12C=CC(=O)C=C1CC[C@@H]1C2=CC[C@]2(C)[C@@H](C(=O)CN3CCN(c4cc(N5CCCC5)nc(N5CCCC5)n4)CC3)CC[C@@H]12.O=C(O)/C=C\C(=O)O [U-74389G maleate] ?
Ans: 52844

Q: Ok, now N=C(N)NC(=N)Nc1ccccc1 [1-Phenylbiguanide]
Ans: 52325

Q: Now give it for Nc1ncnc2c1ncn2[C@@H]1O[C@H](COP(=O)(O)CP(=O)(O)OP(=O)([O-])[O-])[C@@H](O)[C@H]1O.[Li+].[Li+] too.
Ans: 51012

Q: Repeat with Cc1c(C)c2c(c(C)c1O)CCC(C)(CN1CCN(c3cc(N4CCCC4)nc(N4CCCC4)n3)CC1)O2.Cl.Cl (centres unmarked) [U-83836 dihydrochloride]
Ans: 52883

Q: Same question, NC(=Nc1ccccc1)NC(=O)c1nc(Cl)c(N)nc1N [Phenamil methanesulfonate] this time
Ans: 52022

Q: What do you have for CN1CCN(c2ccc3ccccc3n2)CC1.O=C(O)/C=C\C(=O)O.O=C(O)/C=C\C(=O)O [Quipazine, N-methyl-, dimaleate] ?
Ans: 51627

Q: Request: CNc1ncnc2c1ncn2[C@@H]1O[C@H](CO)[C@@H](O)[C@H]1O
Ans: 48943

Q: Now try CN1CCN2c3ccccc3Cc3ccccc3C2C1 (centres unmarked) [Mianserin hydrochloride] .
Ans: 51451

Q: Now this one: NC(Cc1ccc(Cl)cc1)C(=O)O (racemic) [(±)-p-Chlorophenylalanine]
Ans: 55203

Q: Consider next the molecule CCCN(CCC)CCc1ccc(O)c(O)c1 [Dipropyldopamine hydrobromide] in the same way.
Ans: 52448

Values were extracted from paper PMC5706701.
